biological target: COX-2 (Mus musculus, UniProt Q05769); test: Evaluation of COX-2 activity: PGE2 formation in aspirin-treated, LPS-stimulated mouse peritoneal macrophages; format: cell-based
Decision: IC50, μg/ml COX-2 beneath 0.03 µg/mL gives satisfied; IC50, μg/ml COX-2 meeting or exceeding 0.03 µg/mL gives not satisfied.

{"chem smiles": "CC1(C)OC(c2ccc(S(N)(=O)=O)c(F)c2)=C(c2ccccc2Cl)C1=O", "group": "not satisfied"}
{"chem smiles": "CC1(C)OC(c2ccc(S(N)(=O)=O)cc2)=C(c2ccco2)C1=O", "group": "not satisfied"}
{"chem smiles": "CSc1ccc(C2=C(c3ccccc3)C(=O)C(C)(C)O2)cc1", "group": "not satisfied"}
{"chem smiles": "COc1ccc(C2=C(c3ccc(S(N)(=O)=O)cc3)OC(C)(C)C2=O)cc1OC", "group": "not satisfied"}
{"chem smiles": "CCCc1ccc(C2=C(c3ccc(S(C)(=O)=O)cc3)OC(C)(C)C2=O)cc1", "group": "satisfied"}
{"chem smiles": "CC1(C)OC(c2ccc(S(C)(=O)=O)cc2)=C(c2cccc(Cl)c2)C1=O", "group": "satisfied"}
{"chem smiles": "CC1(C)OC(c2ccc(S(C)(=O)=O)c(Cl)c2)=C(c2ccc(F)cc2)C1=O", "group": "satisfied"}
{"chem smiles": "Cc1cc(C2=C(c3cc(F)cc(F)c3)C(=O)C(C)(C)O2)ccc1S(C)(=O)=O", "group": "not satisfied"}
{"chem smiles": "CCSc1ccc(C2=C(c3ccc(S(N)(=O)=O)cc3)OC(C)(C)C2=O)cc1", "group": "satisfied"}

* * *

Target: COX-2 (Mus musculus, UniProt Q05769)
Sequence (Q05769 18-604): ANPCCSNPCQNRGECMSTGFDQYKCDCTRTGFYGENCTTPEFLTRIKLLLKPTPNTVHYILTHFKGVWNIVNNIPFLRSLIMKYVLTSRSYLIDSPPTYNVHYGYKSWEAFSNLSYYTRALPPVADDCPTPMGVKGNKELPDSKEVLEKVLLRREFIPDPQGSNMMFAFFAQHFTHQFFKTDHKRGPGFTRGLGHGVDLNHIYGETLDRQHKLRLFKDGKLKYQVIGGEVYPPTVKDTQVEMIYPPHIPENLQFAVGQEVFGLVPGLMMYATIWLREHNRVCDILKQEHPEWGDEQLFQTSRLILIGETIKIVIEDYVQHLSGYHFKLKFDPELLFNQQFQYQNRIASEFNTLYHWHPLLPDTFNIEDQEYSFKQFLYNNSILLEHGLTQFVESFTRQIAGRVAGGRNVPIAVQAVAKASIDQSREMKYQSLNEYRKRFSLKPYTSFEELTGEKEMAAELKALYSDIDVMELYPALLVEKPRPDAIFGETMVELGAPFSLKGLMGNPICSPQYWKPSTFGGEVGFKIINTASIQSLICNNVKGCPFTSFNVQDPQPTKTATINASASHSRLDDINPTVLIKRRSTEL
Assay: Evaluation of COX-2 activity: PGE2 formation in aspirin-treated, LPS-stimulated mouse peritoneal macrophages
Type: cell-based
Mark rule met only for IC50, μg/ml COX-2 values smaller than 0.03 µg/mL; exact matches and larger values are rule not met.

{"molecule": "CC1(C)OC(c2ccc(S(C)(=O)=O)c(Cl)c2)=C(c2cccc(F)c2)C1=O", "group": "rule met"}
{"molecule": "CC(=O)c1ccc(C2=C(c3ccc(S(C)(=O)=O)cc3)OC(C)(C)C2=O)cc1", "group": "rule not met"}
{"molecule": "CC1(C)OC(c2ccc(S(C)(=O)=O)cc2)=C(c2ccc(C(C)(C)C)cc2)C1=O", "group": "rule not met"}
{"molecule": "CCC1(CC)OC(c2ccc(S(C)(=O)=O)cc2)=C(c2ccc(C(C)=O)cc2)C1=O", "group": "rule not met"}
{"molecule": "CC1(C)OC(c2ccc(S(C)(=O)=O)cc2F)=C(c2cccc(Cl)c2)C1=O", "group": "rule met"}
{"molecule": "CC1(C)OC(c2ccc(S(N)(=O)=O)cc2)=C(c2cc(F)ccc2F)C1=O", "group": "rule not met"}
{"molecule": "C[S+]([O-])c1ccc(C2=C(c3cc(F)cc(F)c3)C(=O)C(C)(C)O2)cc1 (stereo not drawn)", "group": "rule not met"}
{"molecule": "CC1(C)OC(c2ccc(S(C)(=O)=O)cc2)=C(c2ccc(-c3ccccc3)cc2)C1=O", "group": "rule met"}
{"molecule": "CS(=O)(=O)c1ccc(C2=C(c3cccc(F)c3)C(=O)C3(CCOCC3)O2)cc1", "group": "rule not met"}
{"molecule": "CC1(C)OC(c2ccc(S(N)(=O)=O)cc2)=C(c2cccc(F)c2)C1=O", "group": "rule met"}
{"molecule": "CCC1(C)OC(c2ccc(S(C)(=O)=O)cc2)=C(c2ccccc2)C1=O (stereo not drawn)", "group": "rule not met"}
{"molecule": "CCNS(=O)(=O)c1ccc(C2=C(c3ccccc3)C(=O)C(C)(C)O2)cc1Cl", "group": "rule not met"}
{"molecule": "CC1(C)OC(c2ccc(S(N)(=O)=O)cc2F)=C(c2cc(F)cc(F)c2)C1=O", "group": "rule met"}
{"molecule": "C[S+]([O-])c1ccc(C2=C(c3cccc(F)c3)C(=O)C(C)(C)O2)cc1F (stereo not drawn)", "group": "rule not met"}
{"molecule": "CC1(C)OC(c2ccc(S(N)(=O)=O)cc2)=C(c2ccc(Cl)c(Cl)c2)C1=O", "group": "rule met"}
